The reader will find reported Ki values listed item by item below.
measurement_target: 5-hydroxytryptamine receptor 6 (Homo sapiens, UniProt P50406)
Sequence (P50406 whole entry): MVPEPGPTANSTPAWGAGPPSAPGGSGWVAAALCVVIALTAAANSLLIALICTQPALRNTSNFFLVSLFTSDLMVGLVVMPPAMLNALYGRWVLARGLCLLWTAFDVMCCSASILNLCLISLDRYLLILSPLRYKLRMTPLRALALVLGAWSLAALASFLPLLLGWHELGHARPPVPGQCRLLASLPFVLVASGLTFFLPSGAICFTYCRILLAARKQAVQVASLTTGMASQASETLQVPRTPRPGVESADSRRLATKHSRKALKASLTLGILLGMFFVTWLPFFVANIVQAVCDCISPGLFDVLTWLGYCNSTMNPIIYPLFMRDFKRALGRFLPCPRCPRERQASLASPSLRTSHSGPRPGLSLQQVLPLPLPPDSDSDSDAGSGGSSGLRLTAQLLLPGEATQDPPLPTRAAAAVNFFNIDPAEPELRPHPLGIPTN
method_summary: Binding affinity against 5-hydroxytryptamine 6 human cloned receptors in HeLa cells using [3H]LSD as radioligand
Format: cell-based

[
  {
    "given_smiles": "CC(C)C[C@H]1C(=O)N[C@@H](Cc2ccccc2)[C@]2(O)O[C@@](C)(NC(=O)[C@@H]3C=C4c5cccc6[nH]cc(c56)C[C@H]4N(C)C3)C(=O)N12",
    "measurement_target": "5-hydroxytryptamine receptor 6 (Homo sapiens, UniProt P50406)",
    "Ki, µM": 0.0501
  },
  {
    "given_smiles": "NCCc1c[nH]c2ccc(C(N)=O)cc12",
    "measurement_target": "5-hydroxytryptamine receptor 6 (Homo sapiens, UniProt P50406)",
    "Ki, µM": 1
  },
  {
    "given_smiles": "NCCCC1(CCCN)CCc2cccc(O)c2C1",
    "measurement_target": "5-hydroxytryptamine receptor 6 (Homo sapiens, UniProt P50406)",
    "Ki, µM": 0.126
  }
]

* * *

measurement_target: 5-hydroxytryptamine receptor 1B (Homo sapiens)
method_summary: Binding affinity against cloned human 5-hydroxytryptamine 1B receptor in CHO cells using [3H]5-CT as radioligand
Assay type: cell-based
pKi: −log10 of the molar value.

[
  {
    "given_smiles": "CC(C)C[C@H]1C(=O)N[C@@H](Cc2ccccc2)[C@]2(O)O[C@@](C)(NC(=O)[C@@H]3C=C4c5cccc6[nH]cc(c56)C[C@H]4N(C)C3)C(=O)N12",
    "pKi": 8.50
  }
]

* * *

measurement_target: 5-hydroxytryptamine receptor 2C (Homo sapiens)
Sequence (P28335 whole entry): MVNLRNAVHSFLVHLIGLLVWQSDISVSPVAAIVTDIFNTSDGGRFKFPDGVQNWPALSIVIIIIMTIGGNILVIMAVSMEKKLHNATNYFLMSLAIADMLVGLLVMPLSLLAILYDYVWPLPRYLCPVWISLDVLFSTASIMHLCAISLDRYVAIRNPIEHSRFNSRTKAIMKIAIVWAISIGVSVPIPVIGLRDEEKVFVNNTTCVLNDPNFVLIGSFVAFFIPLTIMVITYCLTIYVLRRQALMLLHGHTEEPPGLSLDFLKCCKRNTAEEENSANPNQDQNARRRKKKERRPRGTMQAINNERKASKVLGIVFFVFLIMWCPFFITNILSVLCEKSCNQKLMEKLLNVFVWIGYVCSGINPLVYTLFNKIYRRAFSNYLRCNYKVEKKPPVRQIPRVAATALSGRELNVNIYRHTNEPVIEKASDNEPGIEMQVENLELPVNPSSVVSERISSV
method_summary: Binding affinity against 5-hydroxytryptamine 2C receptor human cloned receptors in HEK 293 cells using [3H]mesulergine as radioligand
Format: cell-based, HEK293
pKi: −log10 of the molar value.
assay_readout: pKi

[
  {
    "given_smiles": "NCCCC1(CCCN)CCc2cccc(O)c2C1",
    "result": 4.90
  }
]

* * *

measurement_target: 5-hydroxytryptamine receptor 7 (Homo sapiens)
Sequence (P34969 whole entry): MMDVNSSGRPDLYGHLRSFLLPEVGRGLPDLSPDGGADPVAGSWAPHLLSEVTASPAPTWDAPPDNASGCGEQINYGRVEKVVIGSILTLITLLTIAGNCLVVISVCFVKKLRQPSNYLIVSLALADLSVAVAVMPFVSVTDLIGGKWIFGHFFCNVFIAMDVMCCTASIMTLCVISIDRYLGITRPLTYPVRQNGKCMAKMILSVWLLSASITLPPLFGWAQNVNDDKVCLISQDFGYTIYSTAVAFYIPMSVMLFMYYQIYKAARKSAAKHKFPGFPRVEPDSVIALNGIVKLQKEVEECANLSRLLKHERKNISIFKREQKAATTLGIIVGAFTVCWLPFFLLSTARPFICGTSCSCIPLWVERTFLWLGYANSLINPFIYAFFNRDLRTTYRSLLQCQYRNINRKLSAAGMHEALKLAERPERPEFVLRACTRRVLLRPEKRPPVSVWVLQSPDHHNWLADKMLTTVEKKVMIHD
method_summary: Binding affinity against 5-hydroxytryptamine 7 human receptors
pKi: −log10 of the molar value.
assay_readout: pKi

[
  {
    "given_smiles": "CC(C)C[C@H]1C(=O)N[C@@H](Cc2ccccc2)[C@]2(O)O[C@@](C)(NC(=O)[C@@H]3C=C4c5cccc6[nH]cc(c56)C[C@H]4N(C)C3)C(=O)N12",
    "assay_readout": "pKi",
    "result": 8.20
  }
]

* * *

measurement_target: 5-hydroxytryptamine receptor 1B (Homo sapiens, UniProt P28222)
Sequence (P28222 whole entry): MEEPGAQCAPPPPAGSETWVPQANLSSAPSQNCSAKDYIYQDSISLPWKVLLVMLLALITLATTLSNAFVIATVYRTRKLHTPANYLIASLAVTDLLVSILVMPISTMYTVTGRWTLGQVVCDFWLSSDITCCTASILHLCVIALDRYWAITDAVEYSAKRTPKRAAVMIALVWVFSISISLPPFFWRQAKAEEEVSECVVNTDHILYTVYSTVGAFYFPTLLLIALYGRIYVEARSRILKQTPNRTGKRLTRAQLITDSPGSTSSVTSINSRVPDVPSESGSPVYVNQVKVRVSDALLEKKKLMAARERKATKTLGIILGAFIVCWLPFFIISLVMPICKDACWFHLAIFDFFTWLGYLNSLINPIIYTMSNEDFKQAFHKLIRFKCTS
method_summary: Binding affinity against human 5-hydroxytryptamine 1B receptor cloned receptors in CHO cells using [3H]5-CT as radioligand
Assay type: cell-based
pKi: −log10 of the molar value.

[
  {
    "given_smiles": "NCCCC1(CCCN)CCc2cccc(O)c2C1",
    "pKi": 6.50
  }
]

* * *

measurement_target: 5-hydroxytryptamine receptor 2C (Homo sapiens, UniProt P28335)
Sequence (P28335 whole entry): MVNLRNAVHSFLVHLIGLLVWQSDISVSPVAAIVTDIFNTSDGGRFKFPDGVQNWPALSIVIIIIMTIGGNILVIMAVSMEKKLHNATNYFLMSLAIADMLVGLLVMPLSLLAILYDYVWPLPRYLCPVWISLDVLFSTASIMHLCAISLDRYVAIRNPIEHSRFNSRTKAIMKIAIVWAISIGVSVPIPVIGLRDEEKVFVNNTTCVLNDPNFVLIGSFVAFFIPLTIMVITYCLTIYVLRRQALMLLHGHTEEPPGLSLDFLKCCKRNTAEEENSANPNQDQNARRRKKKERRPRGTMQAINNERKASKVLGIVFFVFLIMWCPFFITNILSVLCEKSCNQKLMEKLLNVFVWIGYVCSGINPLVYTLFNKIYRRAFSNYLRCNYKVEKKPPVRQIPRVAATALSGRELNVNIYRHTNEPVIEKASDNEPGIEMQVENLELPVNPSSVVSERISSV
method_summary: Binding affinity against 5-hydroxytryptamine 2C receptor human cloned receptorswithouteffect in HEK 293 cells using [3H]mesulergine as radioligand
Assay type: cell-based, HEK293
assay_readout: Ki (nM)

[
  {
    "given_smiles": "CC(C)C[C@H]1C(=O)N[C@@H](Cc2ccccc2)[C@]2(O)O[C@@](C)(NC(=O)[C@@H]3C=C4c5cccc6[nH]cc(c56)C[C@H]4N(C)C3)C(=O)N12",
    "result": 15.8
  }
]
